What protein stability index was measured for each of the following?
System: Saccharomyces cerevisiae;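 further: PSI is a weighted mean of sequencing reads over stability bins, variants kept only with over 10 reads, mCherry proximal and sfGFP distal, peptide attached via GGGS linker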
Protocol description: protein stability index of tFT-peptide fusion (C-terminal peptide) (PSI (0-1 scale)); higher = more stable (slower turnover)
Assay setup: genetic background: wild type; temperature: 30 C
Lab note: record just the number, no unit beside it.

Q: Look at this sequence and give its reported protein stability index. RAMGDRSIRLDV
Result: 0.679

Q: Give its protein stability index value. Item: EDTYSGKGSRGV
Result: 0.774

Q: Please give the measured protein stability index for this sequence: PPPPPAPPALPP
Result: 0.673

Q: Returns the measured protein stability index for the input sequence. Input: EIDMLVVRNLKH
Result: 0.664

Q: Which protein stability index is listed for DASLTSGVARST ?
Result: 0.67

Q: What value of measured protein stability index is listed for NSVWPGYPCTHP ?
Result: 0.639

Q: Entry RGGGGGGIGFPR : reported protein stability index = ?
Result: 0.681

Q: Given the entry FWIRGVTRCVWC , report its measured protein stability index.
Result: 0.724

Q: What does the record list as protein stability index for TPASAGLACILL ?
Result: 0.672

Q: Look at this sequence and give its reported protein stability index. CGAGGARGSVAR
Result: 0.693

Q: Please look up its protein stability index: LTGHVGNMWDAA
Result: 0.86

Q: # protein stability index lookup, item ERLLMLSGLRRA
Result: 0.779

Q: May I ask what protein stability index has been recorded for PSTPPPRLHPSS ?
Result: 0.642

Q: Value lookup for protein stability index; key = FRASLPRVPFSS
Result: 0.695

Q: Fill blank: measured protein stability index of the sequence PPPRTPGCPIPP is ____.
Result: 0.574

Q: Form field: reported protein stability index of TPPCACTPPRAP
Result: 0.686

Q: Given GGRGVEVAGKGW , state its recorded protein stability index.
Result: 0.686

Q: Any idea what its protein stability index is? The sequence is RLDAPGLSRTEN
Result: 0.513

Q: Record request: protein stability index value, item YRTPCPPLSPHS
Result: 0.719

Q: For the sequence shown here, PPNLLPRPPPRG , give the reported protein stability index.
Result: 0.559

Q: Given the sequence SVINMLKPCNVI , what is its reported protein stability index?
Result: 0.647

Q: Name the recorded protein stability index for LERLHSVLLLTS .
Result: 0.284

Q: Any idea what protein stability index was measured for VLYCRSCFLRVS ?
Result: 0.281

Q: protein stability index lookup needed for RLELRVPPSFAH , thanks.
Result: 0.715

Q: Returns the measured protein stability index for the input sequence. Input: GYVVYRRYILIR
Result: 0.141

Q: What does the data say about its protein stability index? Entry: RAFVSDLPHPKS
Result: 0.704

Q: # get_value(readout='protein stability index', item= ARADIQIACIIE )
Result: 0.642

Q: Any idea what its protein stability index is? The sequence is PGTATRAPQLIP
Result: 0.727

Q: # protein stability index lookup, item PREVGVYQQIRD
Result: 0.63

Q: Fill in: protein stability index of KKKKPKKKTQKS is ___
Result: 0.713

Q: So what does the record say about protein stability index for HSPPPPPALLPL ?
Result: 0.66

Q: Field request: protein stability index | item: APPLPPPPLDTS
Result: 0.729

Q: Recorded protein stability index for MYTCMSSNPLAC , please?
Result: 0.66

Q: Would you kindly share the measured protein stability index for PPACSPSPPRSS ?
Result: 0.723

Q: Entry under review: KTRQLINKITQM . Reported protein stability index?
Result: 0.254

Q: I'd like to know its protein stability index. The sequence in question is IESKANPRRIEV
Result: 0.696

Q: So what's the measured protein stability index for this one? PPHSHRSRHPPP
Result: 0.688

Q: Entry TWGLGVFSIMDC has what protein stability index?
Result: 0.633

Q: I am curious: what protein stability index value has been reported for IKKKKKKKKKRQ ?
Result: 0.668

Q: // query protein stability index value for entry GRRGWFESSIRR
Result: 0.731

Q: State the recorded protein stability index for this entry: ICVSVLIRHREL
Result: 0.545

Q: Give the measured protein stability index of LRCPLPFFSAFF .
Result: 0.704

Q: What measured protein stability index goes with GGGGALGRVWPG ?
Result: 0.685

Q: What measured protein stability index goes with PYLLDTPPPSTP ?
Result: 0.769

Q: Dear colleague, I am looking for the recorded protein stability index of the following sequence: GSLGHCWFLFGV
Result: 0.463

Q: Requested read-out: protein stability index. Entry: PHLRTRRPPLLH
Result: 0.694

Q: // lookup protein stability index for HLGIGTRVWEFG
Result: 0.716

Q: Please report the recorded protein stability index for TPGGRTLATALR .
Result: 0.676

Q: Please give the measured protein stability index for this sequence: DVRLVLCEMIKG
Result: 0.513

Q: Would you mind telling me what protein stability index value was observed for PSLLHPPLPTSP ?
Result: 0.657

Q: Please look up its protein stability index: GGGGGGGGRRPG
Result: 0.616

Q: What measured protein stability index goes with LKRMQKYIDMSS ?
Result: 0.714

Q: For the sequence shown here, PPPLPRPRSTAL , give the reported protein stability index.
Result: 0.674

Q: Any idea what its protein stability index is? The sequence is VCMVLCRWRGLG
Result: 0.331

Q: May I ask what protein stability index has been recorded for FLFFMGVGVVLY ?
Result: 0.295

Q: # query: protein stability index of entry LLHCPSRGFLFS
Result: 0.851

Q: Given the sequence RALGDGRLGQDT , what is its reported protein stability index?
Result: 0.682

Q: Given SLFPSEPRPPSL , state its recorded protein stability index.
Result: 0.719

Q: GET /values?readout=protein stability index&item= TANRVDDSILSS
Result: 0.671

Q: GET /values?readout=protein stability index&item= VGVPFLVVGVGV
Result: 0.583

Q: Entry YRIWFSSFLHPT : reported protein stability index = ?
Result: 0.741

Q: For GGREWWLSDGTV , what is its reported protein stability index?
Result: 0.75

Q: Consider the sequence ARMRQNDKHDGS and give its measured protein stability index.
Result: 0.662

Q: Form field: reported protein stability index of GGGRSASGGWGC
Result: 0.698

Q: Would you mind telling me what protein stability index value was observed for QTIRNLEVPLTG ?
Result: 0.751

Q: Endpoint output: protein stability index of PPPVVLPSTLLS . Value?
Result: 0.666

Q: For the sequence LRLFIFLLFSVF , what protein stability index is on record?
Result: 0.198

Q: Which value of protein stability index has been reported for TASPPLHSFLGS in the records?
Result: 0.679

Q: Which protein stability index value is on record for GPSSVGWLFVVC ?
Result: 0.553

Q: So what's the measured protein stability index for this one? GHEQIISIKGIK
Result: 0.73

Q: # lookup: protein stability index of VLPSSSPPGLRC
Result: 0.67

Q: What measured protein stability index goes with PHDRSPPHGPKL ?
Result: 0.742

Q: Suppose we examine the sequence GCCAPWTFDDDL ; what protein stability index value has been reported?
Result: 0.712

Q: Quick one: protein stability index for EMCRCVEGREEG ?
Result: 0.67
